# Tested System: recombinant soluble trimeric 1918 H1 HA (A/South Carolina/1/1918, wild type) (Influenza A virus A/South …, UniProt Q9WFX3 18-529)
# Sequence (Q9WFX3 18-529): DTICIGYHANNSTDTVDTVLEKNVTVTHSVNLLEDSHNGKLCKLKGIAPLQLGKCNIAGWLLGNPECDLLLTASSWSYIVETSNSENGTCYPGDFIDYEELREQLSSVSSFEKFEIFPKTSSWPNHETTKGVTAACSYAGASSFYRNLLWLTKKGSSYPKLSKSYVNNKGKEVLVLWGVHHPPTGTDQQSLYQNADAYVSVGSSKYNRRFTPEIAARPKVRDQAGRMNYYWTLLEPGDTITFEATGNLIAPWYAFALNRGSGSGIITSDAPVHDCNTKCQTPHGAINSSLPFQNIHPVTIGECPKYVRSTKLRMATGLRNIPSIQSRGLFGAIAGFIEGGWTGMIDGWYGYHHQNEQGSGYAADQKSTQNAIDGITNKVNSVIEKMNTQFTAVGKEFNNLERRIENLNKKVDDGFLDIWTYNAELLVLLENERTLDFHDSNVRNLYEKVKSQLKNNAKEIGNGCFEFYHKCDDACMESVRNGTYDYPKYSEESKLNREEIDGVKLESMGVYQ
# Test Description: ELISA, supernate
Measured Endpoint: OD (OD)
// units = OD; emit number, no label

Query: Bench note: what OD did mAb 7A13 (antibody, V domains shown) VH: QVQLQESAPGLVKPSGTLSLTCAVSGASLSSSDWWTWVRQPPGKGLEWIGEIHHGGSTNSNPSLQSRVTISIDKSKKQFSLKLTSVTVADTAVYYCARAPGADAGPYSENIHHWGQGTLVTVS VL: QLVLTQSPSASASLGASVKLTCTLSSRHSDYAIGWHQQQPGKGPRYLMKLNPDGSHTKGDGIPDRFSGSSSGAERYLTISNLLSEDEADYYCQTWGTGIQVFGGGTRLTVIS show?
Reply: 0.076
